Tested on: human neuroblastoma line BE(2)-M17 (M17) cells
Assay: Measurement of Fe efflux from cells (57Fe in media by ICP-MS)
Type: cell-based
Conditions: Homo sapiens; M17 cells pre-loaded with 57Fe; compound 20 μM, 2 h; Fe in media as percentage increase relative to cell media in the absence of the compound; read-out: % Fe Efflux Range
Experimental: Compounds of the current invention were assessed for their ability to efflux iron (Fe) from a cell using the following protocol. The human neuroblastoma line BE(2)-M17 (M17) cell cultures were acquired from Sigma Aldrich (Catalogue #: 95011816). […] The ability of experimental compounds to efflux iron was determined by the dissolution of compounds in DMSO and diluted in Hanks' Balanced Salt Solution (HBSS) for treatment of M17 cells. […]
Overview of reported activation at 20 µM across a group of compounds:
Quantity kind: activation at 20 µM

>>> experimental_value("Cc1ccc(O)c(-c2nc(-c3ccccc3O)c3n2CC(C)CC3)c1 (stereo not shown)")
"< 30%"
>>> experimental_value("Oc1ncccc1-c1nc(-c2cccc(Cl)c2O)n2c1CCCC2")
"100 to 150%"
>>> experimental_value("Cc1ccc(O)c(-c2nc(-c3nc(C)ccc3O)c3n2CCCC3)c1")
"> 150%"
>>> experimental_value("Oc1ccncc1-c1nc(-c2cccc(F)c2O)n2c1CCCC2")
"> 150%"
>>> experimental_value("Cc1ccc(O)c(-c2nc(-c3ccccc3O)c3n2CC(C(F)(F)F)CC3)c1 (stereo not shown)")
"< 30%"
>>> experimental_value("Cc1ccc(O)c(-c2nc(-c3cccc(F)c3O)n3c2CCC3)n1")
"> 150%"
>>> experimental_value("Cc1ccc(O)c(-c2nc(-c3c(O)cccc3F)n3c2CCCC3)n1")
"30 to 100%"
>>> experimental_value("Oc1ccccc1-c1nc(-c2ccccn2)n2c1CCCC2")
"< 30%"
>>> experimental_value("Oc1ccccc1-c1nc(-c2ccccc2O)n2c1CCCC2")
"< 30%"
>>> experimental_value("CCN(CC)CCc1cccc(-c2nc(-c3ccncc3O)c3n2CCCC3)c1O")
"100 to 150%"
>>> experimental_value("Cc1ccc(O)c(-c2nc(-c3ccccc3O)n3c2CCC3)n1")
"> 150%"
>>> experimental_value("Oc1ccncc1-c1nc(-c2ccccc2O)n2c1CCCC2")
"100 to 150%"
>>> experimental_value("Oc1ccccc1-c1nc(-c2ccccc2O)n2c1CCC(C(F)(F)F)C2 (stereo not shown)")
"< 30%"
>>> experimental_value("Oc1ccccc1-c1nc(-c2c(O)cccc2F)n2c1CCCC2")
"< 30%"
>>> experimental_value("COC(=O)c1ccc(O)c(-c2nc(-c3ccccc3O)c3n2CCCC3)c1")
"30 to 100%"
>>> experimental_value("Cc1ccc(O)c(-c2nc(-c3cccc(C)c3O)n3c2CCCC3)n1")
"100 to 150%"
>>> experimental_value("Oc1ccccc1-c1nc(-c2cccnc2O)c2n1CCCC2")
"100 to 150%"
>>> experimental_value("Cc1ccc(O)c(-c2nc(-c3ccccc3O)c3n2CCCC3)c1")
"< 30%"
>>> experimental_value("Cc1ccc(O)c(-c2nc(-c3cc(F)ccc3O)n3c2CCCC3)n1")
"100 to 150%"

###

tested on: human neuroblastoma line BE(2)-M17 (M17) cells; assay: Measurement of Fe efflux from cells (57Fe in media by ICP-MS); assay type: cell-based; conditions: Homo sapiens; M17 cells pre-loaded with 57Fe; compound 20 μM, 2 h; Fe in media as percentage increase relative to cell media in the absence of the compound; read-out: % Fe Efflux Range
Quantity kind: activation at 20 µM

>>> experimental_value("Cc1ccc(O)c(-c2nc(-c3ccccc3O)n3c2CCCC3)n1")
"> 150%"
>>> experimental_value("Cc1ccc(O)c(-c2nc(-c3cccnc3O)c3n2CCCC3)c1")
"100 to 150%"
>>> experimental_value("Oc1ccccc1-c1nc(-c2cccc(CN3CCOCC3)c2O)n2c1CCCC2")
"< 30%"
>>> experimental_value("Cc1ccc(O)c(-c2nc(-c3cccc(F)c3O)n3c2CCCC3)n1")
"> 150%"
